Measured values drawn from paper PMC4301871 for this set.

Readings of Kd for the listed binders
assayed target: T1, LATS1-a (Homo sapiens)
T1 chain: NRQPPPPYPLTA
protocol details: ITC
Give the value in µM but do not write µM after it.

Reference set (2 entries):
YAP-WW1-WW2 165-271 (protein) FEIPDDVPLPAGWEMAKTSSGQRYFLNHIDQTTTWQDPRKAMLSQMNVTAPTSPPVQQNMMNSASGPLPDGWEQAMTQDGEIYYINHKNKTTSWLDPRLDPRFAMNQ | 33.4
FEIPDDVPLPAGWEMAKTSSGQRYFLNHIDQTTTWQDPRKAMLSQ [YAP-WW1 165-209] | 21.5

Attention now turns to another entry.
Value of Kd reported for the binder ASGPLPDGWEQAMTQDGEIYYINHKNKTTSWLDPRLDPRFAMNQ [YAP-WW2 228-271] is 27
